sequences and their reported switch fluorescence ratio
- Tested on: ATP;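 note: ATP exposure 15 min at 22 °C before imaging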
- Protocol: switch fluorescence ratio, 500 uM ATP over buffer (Cy3 cluster intensity, sum of 5 cycles each) (fold (ratio)); higher = stronger signal-on switching upon ATP binding; sequences stand for … in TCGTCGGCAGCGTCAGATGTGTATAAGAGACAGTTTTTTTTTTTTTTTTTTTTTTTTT…TC
- Condition Description: aptamer strand: ATP DNA aptamer (quencher-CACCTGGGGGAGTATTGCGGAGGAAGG + anchor), 100 nM annealed; ATP concentration: 500 uM
Measured Metric: switch fluorescence ratio

| Sequence Data | Number |
| --- | --- |
| GAGTGCTTGG | 0.973 |
| TTGCAAGTTG | 1.01 |
| GACGGTAACT | 1.14 |
| TTAGATCGGG | 0.989 |
| CGTGCCCGTG | 1 |
| GGGCAAGGGG | 1.02 |
| AGTTGGGGAA | 0.983 |
| CAAGGTGGTC | 0.995 |
| GACTTTTTTC | 0.975 |
| GGCACTGGGG | 1.02 |
| GTTTATTCGA | 0.989 |
| ATAAGGAGAT | 0.976 |
| TTGTGAAATT | 0.993 |
| GTGTATGAGA | 1 |
| TCATGGGGGA | 1.03 |
| AGCGGCCCGG | 1.02 |
| TTTGCACGTA | 0.991 |
| ATTTTTGAGA | 0.986 |
| CGTAGATTTT | 1 |
| CTAGTCTAAT | 1.01 |
| AATTAAGAGA | 1.04 |
| GGTGATGGGT | 0.971 |
| TAATCGGGTT | 0.996 |
| TGTCAGGGGA | 1.02 |

---

- System: ATP;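 note: ATP exposure 15 min at 22 °C before imaging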
- Protocol: switch fluorescence ratio, 500 uM ATP over buffer (Cy3 cluster intensity, sum of 5 cycles each) (fold (ratio)); higher = stronger signal-on switching upon ATP binding; sequences stand for … in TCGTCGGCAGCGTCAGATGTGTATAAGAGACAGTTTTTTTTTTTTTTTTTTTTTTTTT…TC
- Condition Description: aptamer strand: ATP DNA aptamer (quencher-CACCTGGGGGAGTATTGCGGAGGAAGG + anchor), 100 nM annealed; ATP concentration: 500 uM

| Sequence Data | switch fluorescence ratio |
| --- | --- |
| GTTTTGGGCC | 1.02 |
| GGATTGGCGG | 0.983 |
| CGGTCTATAG | 1.02 |
| TAGTGGTGGG | 0.984 |
| TTATGTCAGA | 0.987 |
| CAGTTTTGGG | 0.971 |
| GCTGCTGCAC | 1.01 |
| TGGCATCGGG | 1.01 |
| GTGGGAGCGT | 0.979 |
| CGGTGAGGGA | 0.978 |
| ATCAAATCGA | 1 |
| TTTGTTTTCG | 1.02 |
| TTCTTAGAGT | 1.02 |
| AGACTGGGCT | 1.01 |
| TAGGGGGAAT | 1.01 |
| AACGTCTCGA | 1.01 |
| TAGTTGTCCG | 1.02 |
| CGGTACGACG | 0.94 |
| TTTGAATTGG | 0.996 |
| GATAATAATT | 0.997 |
| AGATTGTTGG | 0.989 |
| CGGGATACGG | 1.19 |
| CGTTGTTGTT | 0.989 |
| AGCGACGGAG | 0.966 |
| GGGCAGGGGG | 1.01 |
| TTGGGAAAGG | 1 |
| AAAGTTAATG | 1.01 |
| GCTCTTGATG | 0.98 |
| TTTCCCAGGA | 1.13 |
| TATCACTGTT | 1.05 |
| GCAATATGCA | 1.03 |
| CCAGGCAAGG | 1.18 |
| AGGGGGTATC | 0.988 |
| GTTTTCGCCG | 1.03 |
| TAATTGGCAA | 1 |
| GGGTAGGCGG | 0.941 |
| AATTATTGCA | 0.997 |
| GTTACAGTGG | 1 |
| TGTCTTACCT | 1.15 |
| GGAATTTGTT | 1 |
| CGTCGTATAA | 1.02 |
| CGGGCCGGGC | 0.983 |
| CGTGGAACGA | 1.01 |
| ATTGATTGAC | 1.05 |
| CGGGCATCGA | 0.995 |
| TCCATTGTGT | 0.992 |
| AATCGTATAG | 0.982 |
| CAATTCGCGA | 1.2 |
| CGGGCATGCT | 1.04 |
| TTTGGAACAT | 1.01 |
| TTCTTCTGGC | 1.02 |
| CCTGGGGTAT | 1.09 |
| CGGAAAGCAG | 1.02 |
| AAGAGAGGCA | 1.02 |
| TATACGGGAT | 1.06 |
| ATGTAGTGCG | 0.99 |
| ATAGGCCTTG | 1.01 |
| ATCGAAGCCA | 1.09 |
| GGGGGAGAG | 0.979 |
| CATTGAGCGG | 1 |
| CTAGGCAGTT | 1.01 |
| ATTTGTTAGA | 1.03 |
| ACCACGAATG | 1.02 |
| AGTTAGTGGT | 0.978 |
| CCGGGGGCTC | 1.87 |
| GGATGTGGGG | 0.969 |
| ATTGCTCGA | 0.993 |
| AGCGTCAGTA | 0.999 |
| GTTGGGGGTG | 0.992 |
| TTAGGAGAGC | 0.979 |
| CGGCGTGAGC | 0.993 |
| CAGGGGCAAT | 2.7 |
| AGCATGTCTG | 0.986 |
| ATTTCAATTT | 1.01 |
